- run.conditions: predicted/observed CLt,human
I'd appreciate it if you could supply Fold error (predicted/observed), FCIM values for the items below.
Please reply with the value in numeric form only.

Consider the molecule CCNC(=O)OC1CCN(c2nncc3cc(OC)c(OC)cc23)CC1 . State its measured Fold error (predicted/observed), FCIM.
0.20

Consider the molecule CN[C@@H]1C[C@H]2O[C@@](C)([C@@H]1OC)n1c3ccccc3c3c4c(c5c6ccccc6n2c5c31)C(=O)N[C@H]4O [UCN−01, 7‐hydroxystaurosporine] . State its measured Fold error (predicted/observed), FCIM.
372.03

Consider the molecule Cc1cc(=O)n(-c2ccccc2)n1C [Antipyrine] . State its measured Fold error (predicted/observed), FCIM.
5.17

Consider the molecule CN1C(C(=O)Nc2ccccn2)=C(O)c2sccc2S1(=O)=O . State its measured Fold error (predicted/observed), FCIM.
2.83

All figures here come from paper PMC8742647.
